Target: human TLR8 (Homo sapiens, UniProt Q9NR97)
Sequence (Q9NR97 27-1041): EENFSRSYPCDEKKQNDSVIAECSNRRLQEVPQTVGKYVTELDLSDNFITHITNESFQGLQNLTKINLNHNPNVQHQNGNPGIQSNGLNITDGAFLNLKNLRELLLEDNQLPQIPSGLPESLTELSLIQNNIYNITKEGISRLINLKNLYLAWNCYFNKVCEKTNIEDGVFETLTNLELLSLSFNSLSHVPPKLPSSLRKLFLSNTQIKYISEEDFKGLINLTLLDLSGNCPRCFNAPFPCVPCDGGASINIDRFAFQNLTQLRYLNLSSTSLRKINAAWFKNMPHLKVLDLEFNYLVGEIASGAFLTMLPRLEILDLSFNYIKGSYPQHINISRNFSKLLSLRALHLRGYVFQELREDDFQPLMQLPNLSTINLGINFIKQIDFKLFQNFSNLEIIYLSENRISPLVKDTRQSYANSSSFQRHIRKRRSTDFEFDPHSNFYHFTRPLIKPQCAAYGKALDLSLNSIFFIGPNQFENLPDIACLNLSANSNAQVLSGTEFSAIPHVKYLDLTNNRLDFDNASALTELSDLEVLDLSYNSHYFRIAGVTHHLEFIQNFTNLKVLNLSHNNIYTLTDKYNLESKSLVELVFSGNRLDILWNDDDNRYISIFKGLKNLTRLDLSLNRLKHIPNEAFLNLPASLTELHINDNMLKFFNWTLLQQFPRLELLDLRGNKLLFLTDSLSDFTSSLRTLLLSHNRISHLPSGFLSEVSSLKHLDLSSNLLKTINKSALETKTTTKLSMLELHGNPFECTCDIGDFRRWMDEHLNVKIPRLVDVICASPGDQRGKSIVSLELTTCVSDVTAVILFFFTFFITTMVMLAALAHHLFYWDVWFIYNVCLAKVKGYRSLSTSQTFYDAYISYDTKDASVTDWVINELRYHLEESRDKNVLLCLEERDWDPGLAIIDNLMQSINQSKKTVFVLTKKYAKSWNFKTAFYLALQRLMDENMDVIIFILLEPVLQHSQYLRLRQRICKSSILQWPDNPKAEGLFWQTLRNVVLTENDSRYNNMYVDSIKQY
Test: HEK293-Blue-hTLR-8 cells assay
Conditions: HEK293-Blue-hTLR8 cells, SEAP reporter, R848 stimulation, 20 hrs
Description: HEK293-Blue-hTLR-8 Cells Assay: A stable HEK293-Blue-hTLR-8 cell line was purchased from InvivoGen (Cat. #: hkb-htlr8, San Diego, Calif., USA). […] The cell culture supernatant SEAP reporter activity was determined using QUANTI-Blue™ kit (Cat. #: rep-qb1, Invivogen, San Diego, Ca, USA) at a wavelength of 640 nm, a detection medium that turns purple or blue in the presence of alkaline phosphatase. […]
Measurement type: IC50 (nM)
Write the value in nM as a bare number.

Some solved entries appear below for comparison.
Compound: C[C@@H]1CN(c2ccc(C#N)c3ncccc23)C[C@H]1C(=O)NC1CCCNCC1 (single isomer, unassigned) [Example 52B]
Measurement unit: nM
IC50: 274
--
Compound: N#Cc1ccc(N2CC(C(=O)NC[C@H]3CNCCO3)C3(CC3)C2)c2nccnc12 (single isomer, unassigned) [Example 70B]
Measurement unit: nM
IC50: 168
--
Compound: CN(C)CC1CC(NC(=O)C2CN(c3ccc(C(F)(F)F)c4nccnc34)CC23CC3)C1 (centres unmarked)
Measurement unit: nM
IC50: 44
--
Compound: CN1CC(NC(=O)C2CN(c3ccc(C(F)(F)F)c4nccnc34)CC23CC3)C2(CC2)C1 (centres unmarked)
Measurement unit: nM
IC50: 369

Record lookup: for human TLR8 (Homo sapiens, UniProt Q9NR97), what IC50 belongs to C[C@H]1CN(c2ccc(C(F)(F)F)c3nccnc23)C[C@@H]1C(=O)NC1CCN(C)CC1 ?
11

And O=C(NC1CC2COCC(C1)N2)C1CN(c2ccc(C(F)(F)F)c3nccnc23)CC12CC2 (centres unmarked) ?
291

What do we get for CN1CCC(NC(=O)C2CN(c3ccc(C#N)c4nccnc34)CC23CC3)CC1 (single isomer, unassigned) [Example 7B] ?
26
